Data provenance: patent US20220267464A1

- experimental target: T1, hu N(A2-B2)A-avi-His (human, biotin on the avi tag where used biotinylated)
- T1 construct: chimeric soluble antigen; also called hu N(A2-B2)A-avi-His B; human CEA (A2 domain)
- T1 chain: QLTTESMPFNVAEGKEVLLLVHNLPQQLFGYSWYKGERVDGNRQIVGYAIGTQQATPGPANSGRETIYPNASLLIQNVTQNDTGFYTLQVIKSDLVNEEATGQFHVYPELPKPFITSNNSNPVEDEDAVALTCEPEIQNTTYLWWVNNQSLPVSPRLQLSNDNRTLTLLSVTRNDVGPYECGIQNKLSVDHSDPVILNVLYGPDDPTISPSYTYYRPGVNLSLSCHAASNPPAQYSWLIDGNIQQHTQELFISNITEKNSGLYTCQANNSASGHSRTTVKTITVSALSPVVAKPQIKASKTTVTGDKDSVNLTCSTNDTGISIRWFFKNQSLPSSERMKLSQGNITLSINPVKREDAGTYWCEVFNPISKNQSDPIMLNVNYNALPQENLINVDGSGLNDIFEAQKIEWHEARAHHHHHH
- protocol text: SPR (ProteOn XPR36), purified Fab, biotinylated antigen on NLC chip
Entries and their measured kon follow.
readout name: kon (M⁻¹ s⁻¹)

• A5H1EL1D Fab (phagemid-derived) (Fab, V domains shown, Flag tag; also called parental humanized clone A5H1EL1D) VH: EVQLLESGGGLVQPGGSLRLSCAASGFTFTDYYMNWVRQAPGKGLEWLGFIGNKANAYTTEYSASVKGRFTISRDKSKNTLYLQMNSLRAEDTATYYCTRDRGLRFYFDYWGQGTTVTVSS VL: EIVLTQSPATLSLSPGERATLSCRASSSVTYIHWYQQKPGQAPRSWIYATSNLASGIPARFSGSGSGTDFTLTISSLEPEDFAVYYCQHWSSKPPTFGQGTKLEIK = 108000
• P005.103 Fab (Fab, V domains shown, Fab from E. coli (supernatant or IMAC-purified); Flag tag; also called CEA (P005.103)) VH: EVQLLESGGGLVQPGGSLRLSCAASGFTFTDYYMNWVRQAPGKGLEWLGFIGNKANAYTTEYSASVKGRFTISRDKSKNTLYLQMNSLRAEDTATYYCTRDRGIRFYFDYWGQGTTVTVSS VL: EIVLTQSPATLSLSPGERATLSCRASSSVTYIHWYQQKPGQAPRSWIYATSNLASGIPARFSGSGSGTDFTLTISSLEPEDFAVYYCQHWSSISPTFGQGTKLEIK = 100000
• P001.177 Fab (Fab, V domains shown, Fab from E. coli (supernatant or IMAC-purified); Flag tag; also called CEA (P001.177)) VH: EVQLLESGGGLVQPGGSLRLSCAASGFYFTDYYMNWVRQAPGKGLEWLGFISNKANAYTTEYSASVKGRFTISRDKSKNTLYLQMNSLRAEDTATYYCTRDRGLRFYFDYWGQGTTVTVSS VL: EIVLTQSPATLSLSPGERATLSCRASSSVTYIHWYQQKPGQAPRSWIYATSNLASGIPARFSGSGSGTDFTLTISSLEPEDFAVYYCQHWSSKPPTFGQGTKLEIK = 267000
• P002.139 Fab (Fab, V domains shown, Fab from E. coli (supernatant or IMAC-purified); Flag tag; also called CEA (P002.139)) VH: EVQLLESGGGLVQPGGSLRLSCAASGFYFTDYAMNWVRQAPGKGLEWLGVISNKANAYTTEYSASVKGRFTISRDKSKNTLYLQMNSLRAEDTATYYCTRDRGLRFYFDYWGQGTTVTVSS VL: EIVLTQSPATLSLSPGERATLSCHASSSVTYIHWYQQKPGQAPRSWIYATSNLASGIPARFSGSGSGTDFTLTISSLEPEDFAVYYCQHWSSKPPTFGQGTKLEIK = 105000
• P005.097 Fab (Fab, V domains shown, Fab from E. coli (supernatant or IMAC-purified); Flag tag; also called CEA (P005.097)) VH: EVQLLESGGGLVQPGGSLRLSCAASGFTFTDYYMNWVRQAPGKGLEWLGFIGNKANAYTTEYSASVKGRFTISRDKSKNTLYLQMNSLRAEDTATYYCTRDRGLRFSFDYWGQGTTVTVSS VL: EIVLTQSPATLSLSPGERATLSCRASSSVTYIHWYQQKPGQAPRSWIYATSNLASGIPARFSGSGSGTDFTLTISSLEPEDFAVYYCQHWSSQPPTFGQGTKLEIK = 94000
• P005.102 Fab (Fab, V domains shown, Fab from E. coli (supernatant or IMAC-purified); Flag tag; also called CEA (P005.102)) VH: EVQLLESGGGLVQPGGSLRLSCAASGFTFTDYYMNWVRQAPGKGLEWLGFIGNKANAYTTEYSASVKGRFTISRDKSKNTLYLQMNSLRAEDTATYYCTRDRGIRFQFDYWGQGTTVTVSS VL: EIVLTQSPATLSLSPGERATLSCRASSSVTYIHWYQQKPGQAPRSWIYATSNLASGIPARFSGSGSGTDFTLTISSLEPEDFAVYYCQHWSSKSPTFGQGTKLEIK = 134000
• P006.038 Fab (Fab, V domains shown, Fab from E. coli (supernatant or IMAC-purified); Flag tag; also called CEA (P006.038)) VH: EVQLLESGGGLVQPGGSLRLSCAASGFTFTDYYMNWVRQAPGKGLEWLGFIGNKANAYTTEYSASVKGRFTISRDKSKNTLYLQMNSLRAEDTATYYCTRDRGIRFGFDYWGQGTTVTVSS VL: EIVLTQSPATLSLSPGERATLSCRASSSVTYIHWYQQKPGQAPRSWIYATSNLASGIPARFSGSGSGTDFTLTISSLEPEDFAVYYCQHWSSVPPTFGQGTKLEIK = 225000
